Tested on: Saccharomyces cerevisiae
assay.procedure: protein stability index of tFT-peptide fusion (C-terminal peptide) (PSI (0-1 scale)); higher = more stable (slower turnover);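 further: PSI is a weighted mean of sequencing reads over stability bins, variants kept only with over 10 reads, mCherry proximal and sfGFP distal, peptide attached via GGGS linker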
measurement.context: genetic background: doa10 deletion; temperature: 30 C
Entries are sorted into classes by protein stability index as follows: lower level (below 0.2), middle level (0.2 to below 0.3), upper level (0.3 or more)

{"columns": ["sequence.input", "class.name"],
 "data": [
  ["AGGLLIGSVGVG", "upper level"],
  ["LFCVCFYGRIFL", "upper level"],
  ["LHSDHLRIILRI", "upper level"],
  ["PIKIYGYLTTVV", "upper level"],
  ["APASFRVLISAF", "lower level"],
  ["SLPVSPLVRLLA", "lower level"],
  ["VVRMRPRLFSLY", "lower level"],
  ["ALRLVAFFWVPG", "upper level"],
  ["HVLGSIYWAIFV", "middle level"],
  ["ACEFRFFYVFRC", "middle level"],
  ["ACACFWVVWVGW", "middle level"],
  ["FAVHHLRYILLV", "lower level"],
  ["LPLHPHRSRYLV", "lower level"],
  ["LFVFVLAGFCCV", "middle level"],
  ["LLYYMPELLILT", "middle level"]
]}

----------
Test system: Saccharomyces cerevisiae
assay.procedure: protein stability index of tFT-peptide fusion (C-terminal peptide) (PSI (0-1 scale)); higher = more stable (slower turnover)
measurement.context: genetic background: wild type; temperature: 30 C
value.kind: protein stability index

{"columns": ["sequence.input", "tested.on", "reported.value"],
 "data": [
  ["GPLPPLHPSPTI", "Saccharomyces cerevisiae", 0.725],
  ["VKKSTPIKKPQT", "Saccharomyces cerevisiae", 0.651],
  ["LGVGFFLGFRTG", "Saccharomyces cerevisiae", 0.651],
  ["VGICWLTEPVLY", "Saccharomyces cerevisiae", 0.731],
  ["SPKGRVISRRQP", "Saccharomyces cerevisiae", 0.602],
  ["SPVFSDFLLSLC", "Saccharomyces cerevisiae", 0.642],
  ["PLYSKHPTRFFP", "Saccharomyces cerevisiae", 0.714],
  ["SGSLFVRIGGMG", "Saccharomyces cerevisiae", 0.754],
  ["GARPTKCCSYGT", "Saccharomyces cerevisiae", 0.683]
]}

----------
protein stability index values by entry
Test system: Saccharomyces cerevisiae
assay.procedure: protein stability index of tFT-peptide fusion (C-terminal peptide) (PSI (0-1 scale)); higher = more stable (slower turnover)
measurement.context: genetic background: wild type; temperature: 30 C
value.kind: protein stability index

{"columns": ["sequence.input", "reported.value"],
 "data": [
  ["FFFLPSPTFLPP", 0.764],
  ["PPLHPPLPPPPS", 0.71],
  ["SSFFAFYSRRRF", 0.714],
  ["LNSRQATLRPQT", 0.716],
  ["QGGGGGGRSGWR", 0.685],
  ["SSFLFVPHHYPS", 0.706],
  ["RAKCELVHGLRT", 0.65],
  ["SAASLWSGFRYG", 0.68],
  ["GQHSCTRVDTQQ", 0.734],
  ["GRPTRRHRGRLV", 0.709],
  ["PHLPPQPPSPPA", 0.716],
  ["APPPPPPPPPPP", 0.63],
  ["VSSSLPVHLSLS", 0.717],
  ["SGRPALSRARRG", 0.668],
  ["RLLLSRCSFLPT", 0.663],
  ["ERSRKVSWRFIR", 0.675],
  ["AGIFGGGRGGSV", 0.697],
  ["LLICRLFLFTIW", 0.555],
  ["RWTLMMAIIRQR", 0.559],
  ["KRGNEEYSRGNN", 0.692],
  ["GGGGGGAEGAGW", 0.711],
  ["DSVGGVLGRGAR", 0.633],
  ["VRDGGLCYLAQL", 0.667],
  ["LPPPPPILHLPS", 0.646],
  ["GQSSVGCYNYRR", 0.676]
]}

----------
System: Saccharomyces cerevisiae
assay.procedure: protein stability index of tFT-peptide fusion (C-terminal peptide) (PSI (0-1 scale)); higher = more stable (slower turnover)
measurement.context: genetic background: wild type; temperature: 30 C
Classification field: yes = protein stability index at or over 0.7; no = protein stability index under 0.7.

{"columns": ["sequence.input", "class.name"],
 "data": [
  ["RRMSQQCLPRQR", "yes"],
  ["YSRSSFSIPPPF", "yes"],
  ["LPSSVLTAAPSA", "no"],
  ["IRDLFHHFFLSV", "no"],
  ["VTFRTFFVPTFK", "no"],
  ["NSFTYWYGGCIL", "yes"],
  ["FCLGWWVAVCGL", "no"],
  ["RRRQAEEDERNG", "no"],
  ["PPPRPCRAPAAA", "no"],
  ["LPRPHARPPLSS", "no"]
]}

----------
System: Saccharomyces cerevisiae
assay.procedure: protein stability index of tFT-peptide fusion (C-terminal peptide) (PSI (0-1 scale)); higher = more stable (slower turnover)
measurement.context: genetic background: cdc53-1; temperature: 37 C
protein stability index values by entry

{"columns": ["sequence.input", "protein stability index"],
 "data": [
  ["YVLLSRVSVFSA", 0.464],
  ["LVLCCGFWFRAV", 0.606],
  ["VCFAWWGARCVA", 0.619],
  ["EMISRNVFTYLS", 0.755],
  ["LFLLFLCLSSLF", 0.584],
  ["TIKGRLNVRKIE", 0.707],
  ["MVVSLVLCFWAS", 0.331],
  ["ASSSPAPYAPYT", 0.756],
  ["RWRLWVGWWVVG", 0.587],
  ["CVILVVISGLLG", 0.315],
  ["FGVLGCAWVWVG", 0.528],
  ["KTSVLLCVSTSF", 0.645],
  ["FCVGVVIQLSGV", 0.491],
  ["CTESVYIIRFML", 0.661],
  ["AGGLLIGSVGVG", 0.468],
  ["FLQIIIFSRVLF", 0.543],
  ["AVLAALVSTLAG", 0.565],
  ["FFATFVPSFLLC", 0.674],
  ["SFIVGYRWNNRN", 0.738],
  ["FVFCTCSFFFLW", 0.532],
  ["CWFGLVSLFWVV", 0.52],
  ["LSLVIFIFLYCR", 0.123],
  ["ALEFLLLVCRRL", 0.621],
  ["EWSRVVRWNWDG", 0.699],
  ["CSKGLSILLLLL", 0.672],
  ["FCSNLLSMVIAV", 0.382],
  ["FCCSVFCFLCLY", 0.548],
  ["LAVVCIHAVSSF", 0.538],
  ["WLMVGVDWRFVG", 0.625],
  ["WGFLSVVCLSGV", 0.523],
  ["FFYVFPFFIFRF", 0.31],
  ["YNTRLCTFSCML", 0.808],
  ["DWCACFFILLLA", 0.0382],
  ["RIWRLLIIIIKK", 0.428],
  ["PPPNSSTSPPCS", 0.725],
  ["VYFPRLLVRVSW", 0.472],
  ["FFVFLVLFCLWV", 0.259],
  ["YSVERCLFVSVA", 0.444],
  ["PSVRCVVACFIN", 0.584],
  ["EVGTMALISCSV", 0.356],
  ["LFSSFFVFRLLV", 0.432],
  ["VCVVVLVGVVFL", 0.349],
  ["AFFCTLCLFLVS", 0.472],
  ["GIFVRIVCIDVA", 0.183],
  ["LRVLSVVRLSVW", 0.545],
  ["SSVGLFVLLCLV", 0.333],
  ["SDGGVVRGGCRG", 0.787],
  ["RSFPCITVFIRA", 0.469],
  ["LFFCYRVFLLVF", 0.152],
  ["ALTLSYAIKLKV", 0.395],
  ["RMLSLFFPLRTL", 0.7],
  ["GFSPLFVLVFGV", 0.486],
  ["PWLLHTPLSLVF", 0.356],
  ["RGVGSGGLEGIG", 0.546],
  ["VVRMRPRLFSLY", 0.866],
  ["IVEVNCILMWIF", 0.489],
  ["RGFIYCSFVVRL", 0.466],
  ["PSDVLERVIRLL", 0.714],
  ["LAINVRRELLFF", 0.723],
  ["RLPFPVVLFLLF", 0.465],
  ["PSPVRSSYASTL", 0.704],
  ["PVLSLPPLSSPP", 0.732],
  ["GWVVWLTGCLVF", 0.592],
  ["PPLPPVCPSPSL", 0.74],
  ["CCFVGLRYVLWV", 0.5],
  ["LWERRSRQLTMF", 0.765],
  ["YLGLSAVAILWM", 0.533],
  ["FAVHHLRYILLV", 0.325],
  ["RPCLSALRFRFF", 0.764],
  ["LHSDHLRIILRI", 0.63],
  ["EERKIFLKVVKV", 0.496],
  ["GPTLLVSRIAVI", 0.517],
  ["LGFFPSPVLCVF", 0.104]
]}

Recorded values, source the supplement of paper PMC10724198.
